test: in vivo; settings: Sprague-Dawley, rat, kidney, inhaled, 2 mg/kg
result.type: concentration at 24 h (ng/g)
One number for each entry, in ng/g.

Summary for this compound, CC[C@H](C)C[C@H](C)CCCCCCCCC(=O)N[C@H]1C[C@@H](O)[C@@H](NCCN)NC(=O)[C@@H]2[C@@H](O)CCN2C(=O)[C@H]([C@H](O)CCN)NC(=O)[C@H]([C@H](O)[C@@H](O)c2ccc(O)cc2)NC(=O)[C@@H]2C[C@@H](O)CN2C(=O)[C@H]([C@@H](C)O)NC1=O [Caspofungin, caspofungin] : concentration at 24 h is 160

----------
test: in vivo; conditions: Sprague-Dawley, rat, kidney, inhaled, 2 mg/kg
result.type: concentration at 0.5 h (ng/g)
Answers are plain numbers, in ng/g.

Summary for this molecule, "CC[C@H](C)C[C@H](C)CCCCCCCCC(=O)N[C@H]1C[C@@H](O)[C@@H](NCCN)NC(=O)[C@@H]2[C@@H](O)CCN2C(=O)[C@H]([C@H](O)CCN)NC(=O)[C@H]([C@H](O)[C@@H](O)c2ccc(O)cc2)NC(=O)[C@@H]2C[C@@H](O)CN2C(=O)[C@H]([C@@H](C)O)NC1=O" : concentration at 0.5 h is 160

----------
assay: in vivo; settings: Sprague-Dawley, rat, lung, inhaled, 7.2 mg/kg
result.type: concentration at 156 h (ng/g)
Numbers only, in ng/g.

Summary for this compound, "CC[C@H](C)C[C@H](C)CCCCCCCCC(=O)N[C@H]1C[C@@H](O)[C@@H](NCCN)NC(=O)[C@@H]2[C@@H](O)CCN2C(=O)[C@H]([C@H](O)CCN)NC(=O)[C@H]([C@H](O)[C@@H](O)c2ccc(O)cc2)NC(=O)[C@@H]2C[C@@H](O)CN2C(=O)[C@H]([C@@H](C)O)NC1=O" : concentration at 156 h is 2440

----------
assay: in vivo; conditions: Sprague-Dawley, rat, liver, inhaled, 2 mg/kg
result.type: concentration at 48 h

Summary for this compound, "CC[C@H](C)C[C@H](C)CCCCCCCCC(=O)N[C@H]1C[C@@H](O)[C@@H](NCCN)NC(=O)[C@@H]2[C@@H](O)CCN2C(=O)[C@H]([C@H](O)CCN)NC(=O)[C@H]([C@H](O)[C@@H](O)c2ccc(O)cc2)NC(=O)[C@@H]2C[C@@H](O)CN2C(=O)[C@H]([C@@H](C)O)NC1=O" : concentration at 48 h is 180 ng/g

----------
test: in vivo; settings: Sprague-Dawley, rat, lung, inhaled, 2 mg/kg
result.type: concentration at 24 h (ng/g)
Give bare numbers, in ng/g.

Summary for this compound, "CC[C@H](C)C[C@H](C)CCCCCCCCC(=O)N[C@H]1C[C@@H](O)[C@@H](NCCN)NC(=O)[C@@H]2[C@@H](O)CCN2C(=O)[C@H]([C@H](O)CCN)NC(=O)[C@H]([C@H](O)[C@@H](O)c2ccc(O)cc2)NC(=O)[C@@H]2C[C@@H](O)CN2C(=O)[C@H]([C@@H](C)O)NC1=O" : concentration at 24 h is 5310

----------
test: in vivo; settings: Sprague-Dawley, rat, kidney, inhaled, 2 mg/kg
result.type: concentration at 48 h
Report field: quantity (unit follows the number).

Summary for this molecule, CC[C@H](C)C[C@H](C)CCCCCCCCC(=O)N[C@H]1C[C@@H](O)[C@@H](NCCN)NC(=O)[C@@H]2[C@@H](O)CCN2C(=O)[C@H]([C@H](O)CCN)NC(=O)[C@H]([C@H](O)[C@@H](O)c2ccc(O)cc2)NC(=O)[C@@H]2C[C@@H](O)CN2C(=O)[C@H]([C@@H](C)O)NC1=O [Caspofungin, caspofungin] : concentration at 48 h is 120 ng/g
